Assay: Pharmacokinetic study in plasma after oral administration (HPLC-MS)
Settings: male, SD, rat, in vivo, Drug concentration in plasma, 0 h, SD rats, EFX 10 mg/kg, EFX-Ca 12 mg/kg

{"molecule": "CCN1CCN(c2cc3c(cc2F)c(=O)c(C(=O)[O-])cn3C2CC2)CC1.CCN1CCN(c2cc3c(cc2F)c(=O)c(C(=O)[O-])cn3C2CC2)CC1.O.O.O.O.[Ca+2] [EFX-Ca, [Ca(EFX)2(H2O)4]·H2O]", "concentration at 0 h / ng/mL": 80}

====

Test: Pharmacokinetic study in plasma after oral administration (HPLC-MS)
Details: male, SD, rat, in vivo, Drug concentration in plasma, 4 h, SD rats, EFX 10 mg/kg, EFX-Ca 12 mg/kg
reported endpoint: concentration at 4 h (ng/mL)

{"compound": "CCN1CCN(c2cc3c(cc2F)c(=O)c(C(=O)[O-])cn3C2CC2)CC1.CCN1CCN(c2cc3c(cc2F)c(=O)c(C(=O)[O-])cn3C2CC2)CC1.O.O.O.O.[Ca+2] [EFX-Ca, [Ca(EFX)2(H2O)4]·H2O]", "reported endpoint": "concentration at 4 h", "value unit": "ng/mL", "reported": 700}

====

Test: Pharmacokinetic study in plasma after oral administration (HPLC-MS)
Settings: male, SD, rat, in vivo, Drug concentration in plasma, 10 h, SD rats, EFX 10 mg/kg, EFX-Ca 12 mg/kg

{"compound": "CCN1CCN(c2cc3c(cc2F)c(=O)c(C(=O)[O-])cn3C2CC2)CC1.CCN1CCN(c2cc3c(cc2F)c(=O)c(C(=O)[O-])cn3C2CC2)CC1.O.O.O.O.[Ca+2] [EFX-Ca, [Ca(EFX)2(H2O)4]·H2O]", "value unit": "ng/mL", "concentration at 10 h": 100}

====

Experiment: Water solubility by UV-Vis (Lambert–Beer law)
Format: physicochemical
Details: thermodynamic from solid, saturated aqueous solution, 30× dilution, room temperature / 35 °C (method)

{"compound": "CCN1CCN(c2cc3c(cc2F)c(=O)c(C(=O)O)cn3C2CC2)CC1 [EFX, enrofloxacin, reference compound]", "value unit": "µg/mL", "solubility": 204}

====

Assay: Pharmacokinetic study in plasma after oral administration (HPLC-MS)
Settings: male, SD, rat, in vivo, Drug concentration in plasma, 12 h, SD rats, EFX 10 mg/kg, EFX-Ca 12 mg/kg
reported endpoint: concentration at 12 h (ng/mL)

{"compound": "CCN1CCN(c2cc3c(cc2F)c(=O)c(C(=O)[O-])cn3C2CC2)CC1.CCN1CCN(c2cc3c(cc2F)c(=O)c(C(=O)[O-])cn3C2CC2)CC1.O.O.O.O.[Ca+2] [EFX-Ca, [Ca(EFX)2(H2O)4]·H2O]", "reported": 140}

====

Experiment: Pharmacokinetic study in plasma after oral administration (HPLC-MS)
Settings: male, SD, rat, in vivo, Drug concentration in plasma, 0.083 h, SD rats, EFX 10 mg/kg, EFX-Ca 12 mg/kg
reported endpoint: concentration at 0.083 h

{"compound": "CCN1CCN(c2cc3c(cc2F)c(=O)c(C(=O)[O-])cn3C2CC2)CC1.CCN1CCN(c2cc3c(cc2F)c(=O)c(C(=O)[O-])cn3C2CC2)CC1.O.O.O.O.[Ca+2] [EFX-Ca, [Ca(EFX)2(H2O)4]·H2O]", "reported endpoint": "concentration at 0.083 h", "reported": "860 ng/mL"}
